- TEST_TARGET: HCN1 channels (Mus musculus)
- Sequence (O88704 74-390 limits assumed): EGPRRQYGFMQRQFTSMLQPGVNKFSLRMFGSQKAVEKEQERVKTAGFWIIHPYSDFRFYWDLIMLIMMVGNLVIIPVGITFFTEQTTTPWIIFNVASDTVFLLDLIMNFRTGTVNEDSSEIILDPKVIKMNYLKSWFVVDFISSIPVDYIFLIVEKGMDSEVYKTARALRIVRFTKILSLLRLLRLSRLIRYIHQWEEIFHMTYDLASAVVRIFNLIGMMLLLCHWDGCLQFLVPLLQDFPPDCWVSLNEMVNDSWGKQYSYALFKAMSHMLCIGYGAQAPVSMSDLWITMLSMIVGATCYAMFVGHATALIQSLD
- ASSAY_OVERVIEW: Two electrode voltage clamp of HCN1 channels expressed in Xenopus oocytes (shift in V1/2)
- Format: cell-based
- REPORTED_CONDITIONS: ΔV1/2 of HCN1, 2,6 di-alkylbenzene analogues
QUANTITY_MEASURED: efficacy apparent in the concentration response (Hill fit)

MOLECULE | TEST_TARGET | TEST_VALUE
CCC(C)c1cccc(C(C)CC)c1O (stereo not drawn) | HCN1 channels (Mus musculus) | partial
CC(C)(C)C1CCCC(C(C)(C)C)C1O (stereo not drawn) | HCN1 channels (Mus musculus) | partial
CC(C)(C)c1cccc(C(C)(C)C)c1O | HCN1 channels (Mus musculus) | full
CC(C)C1CCCC(C(C)C)C1O (stereo not drawn) | HCN1 channels (Mus musculus) | partial
CCc1cccc(CC)c1O | HCN1 channels (Mus musculus) | partial
CC(C)c1cccc(C(C)C)c1O | HCN1 channels (Mus musculus) | full

Data credit: patent US12274679B2
